tested on: TK-10 renal; experiment: NCI tumour cell line growth inhibition, 48 h; in the data active = GI50 below about 0.43 µM; inactive = the rest
Can you answer with just one of these options? active, inactive

Some solved entries appear below for comparison.
>>> assigned_category("Cn1cc(-c2csc(-c3cn(CCCN4CCCCC4)c4ccc(Br)cc34)n2)c2cccnc21")
"inactive"
>>> assigned_category("O=C1NC(c2cccc3ccccc23)Nc2ccccc21 (configuration not stated)")
"active"
>>> assigned_category("COc1ccc(Cl)cc1Nc1nc(C(F)(F)F)ccc1C(=O)N/N=C/c1ccccc1Cl")
"inactive"
>>> assigned_category("Cc1cc2oc(=O)cc(OC/C=C3/CCC(=O)O3)c2cc1C")
"inactive"
>>> assigned_category("O=C(O)CC(S)C(=O)O.[Li+].[Sb] (configuration not stated)")
"inactive"

Query :: Tell me the recorded outcome of this test for O=C1c2c(c3c4ccccc4n(CCCCCCN4CCOCC4)c3c3[nH]c4ccccc4c23)C(=O)N1O .
Result :: inactive

Query :: Tell me the recorded outcome of this test for CCOC1Oc2ccccc2C(=O)/C1=C\Nc1ccc(C(=O)O)c(O)c1 (configuration not stated) .
Result :: inactive
